Exercise: for every item that follows, state its recorded pIC50.
Target: T1, B-cat-Halo (UniProt P35222 1-781)
T1 construct: Expressed by transfection in HEK293 cells for the NanoBRET assay; also called beta-catenin HaloTag NanoBRET construct; not shown: HaloTag
T1 sequence (looked up): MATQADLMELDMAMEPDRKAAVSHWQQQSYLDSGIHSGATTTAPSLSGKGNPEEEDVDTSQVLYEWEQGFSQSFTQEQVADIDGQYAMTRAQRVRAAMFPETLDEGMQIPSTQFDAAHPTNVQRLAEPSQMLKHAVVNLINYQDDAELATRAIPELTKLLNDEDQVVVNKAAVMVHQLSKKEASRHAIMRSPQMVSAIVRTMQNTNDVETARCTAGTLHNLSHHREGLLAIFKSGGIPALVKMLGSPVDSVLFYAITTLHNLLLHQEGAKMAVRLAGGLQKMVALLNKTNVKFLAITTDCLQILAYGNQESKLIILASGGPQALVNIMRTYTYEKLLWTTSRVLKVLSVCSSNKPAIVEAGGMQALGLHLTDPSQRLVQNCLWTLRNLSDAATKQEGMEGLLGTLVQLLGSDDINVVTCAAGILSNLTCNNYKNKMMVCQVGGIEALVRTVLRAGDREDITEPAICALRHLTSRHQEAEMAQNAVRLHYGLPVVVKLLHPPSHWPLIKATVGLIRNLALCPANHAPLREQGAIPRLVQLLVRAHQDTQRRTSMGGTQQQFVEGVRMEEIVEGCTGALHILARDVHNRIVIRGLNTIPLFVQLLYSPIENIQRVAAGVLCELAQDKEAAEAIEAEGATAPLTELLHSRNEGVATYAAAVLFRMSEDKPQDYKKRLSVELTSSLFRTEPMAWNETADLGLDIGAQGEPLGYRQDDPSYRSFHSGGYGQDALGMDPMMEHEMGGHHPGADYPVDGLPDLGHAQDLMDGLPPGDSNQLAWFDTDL
Assay: NanoBRET Abs IC50 in HEK293 cells; Bcat-Halo, TCF4-Luc as competitor
Starred links: 1 amine or outer side, 2 acyl side, 3 side chain; linkers in the order of their positions; H or OH if unused. Positions of bridges follow the written chain, without caps; N, C: chain ends. Non-standard residues stand in square brackets, D forms with d. Primed or numbered codes have the meaning given here. B5(21) = 2-amino-2-(pent-4-en-1-yl)hept-6-enoic acid, bis(4-pentenyl)glycine (stitching residue), C=CCCCC(CCCC=C)(N[*:1])C(=O)[*:2]; Bta = N[C@@H](Cc1csc2ccccc12)C(=O)O; αAllylPro = C=CC[C@@]1(C(=O)O)CCCN1; S8 = C=CCCCCCC[C@](C)(N)C(=O)O
Give bare numbers, as −log10 of the molar value.

Ac-[αAllylPro]DL[B5(21)]DDAAFN[S8]F[Bta]H-NH2 (staple 1-4, 4-11; not fully specified, Stapled peptide composition; also called Ac-PL3-Asp-Leu-B5-Asp-Asp-Ala-Ala-Phe-Asn-S8-Phe-BztA-His-NH2) [I-565]; 4.59

Dear reader, for each entry below, please note its pIC50.
1. XDLXDEAAFNXFXQ (not fully specified; N-terminal Ac; C-terminal NH2; non-natural PL3 (1), B5 (4), S8 (11), BztA (13); stapled PL3-B5 and B5-S8 by olefin metathesis, Stapled peptide composition; also called Ac-PL3-Asp-Leu-B5-Asp-Glu-Ala-Ala-Phe-Asn-S8-Phe-BztA-Gln-NH2) [I-576]
2. XDLXDDAAFNXFXQ (not fully specified; N-terminal Ac; C-terminal NH2; non-natural PL3 (1), B5 (4), S8 (11), BztA (13); stapled PL3-B5 and B5-S8 by olefin metathesis, Stapled peptide composition; also called Ac-PL3-Asp-Leu-B5-Asp-Asp-Ala-Ala-Phe-Asn-S8-Phe-BztA-Gln-NH2) [I-563]
3. Ac-[αAllylPro]DL[B5(21)]DEAAFN[S8]F[Bta]Q-NH2 (staple 1-4, 4-11; not fully specified, Stapled peptide composition; also called Ac-PL3-Asp-Leu-B5-Asp-Glu-Ala-Ala-Phe-Asn-S8-Phe-BztA-Gln-NH2) [I-577]

Response given:
[4.95, 4.80, 4.98]
